- Test system: wheat (Triticum aestivum)
- assaySummary: Test A postemergence
- Assay type: in vivo
- assayConditions: Triticum aestivum, post-emergence, 240 h, 125 g ai/ha, postemergence, visual injury rating after approximately 10 d; read-out: Wheat plant response rating (0 to 100 scale, 0 no effect, 100 complete control)
metric: plant injury at 125 g/ha (%)
Answers are plain numbers, in %.

[[record]]
compound = "COc1cc([C@H]2CN(C)C(=O)[C@@H]2C(=O)Nc2ccccc2F)cc(C(F)(F)F)c1 [Compound 855]"
targetorsystem = "wheat (Triticum aestivum)"
metric = "plant injury at 125 g/ha"
recordednumber = 50

[[record]]
compound = "Cc1c(F)ccc([C@H]2CNC(=O)[C@@H]2C(=O)Nc2ccc(F)c(F)c2F)c1F [Compound 830]"
targetorsystem = "wheat (Triticum aestivum)"
metric = "plant injury at 125 g/ha"
recordednumber = 0

[[record]]
compound = "CCOc1ccc([C@H]2CN(C)C(=O)[C@@H]2C(=O)Nc2cccc(F)c2F)cc1 [Compound 904]"
targetorsystem = "wheat (Triticum aestivum)"
metric = "plant injury at 125 g/ha"
recordednumber = 0

[[record]]
compound = "COc1c(F)ccc([C@H]2CN(C)C(=O)[C@@H]2C(=O)Nc2ccccc2F)c1Cl [Compound 892]"
targetorsystem = "wheat (Triticum aestivum)"
metric = "plant injury at 125 g/ha"
recordednumber = 0

[[record]]
compound = "O=C(Nc1cccc(F)c1F)[C@H]1C(=O)N(O)CC[C@@H]1c1ccc(F)cc1 [Compound 805]"
targetorsystem = "wheat (Triticum aestivum)"
metric = "plant injury at 125 g/ha"
recordednumber = 0


For each listed entry, give its plant injury at 125 g/ha.
1. CN1C[C@H](c2cccc(OC(F)(F)C(F)F)c2)[C@@H](C(=O)Nc2ccccc2S(C)(=O)=O)C1=O [Compound 864]
2. COc1c(F)ccc([C@H]2CNC(=O)[C@@H]2C(=O)Nc2ccc(F)cc2F)c1Cl [Compound 883]
3. COc1cccc(C2CN(C)C(=O)C2C(=O)Nc2cccc(F)c2F)c1 (centres unmarked) [Compound 886]

// result
1: 50; 2: 0; 3: 0

----------
- Test system: ragweed (common ragweed, Ambrosia elatior)
- assaySummary: Test A preemergence
- Format: in vivo
- assayConditions: Ambrosia artemisiifolia, pre-emergence, 240 h, 125 g ai/ha, preemergence; visual injury rating, 0 to 100 scale where 0 is no effect and 100 is complete control; approximately 10 d; read-out: Ragweed plant response rating
For each of the compounds below, state its pest or weed control at 125 g/ha.
Numbers only, in %.

For orientation, consider the following solved cases.
[[record]]
compound = "CN1C[C@H](c2ccc(Cl)c(F)c2)[C@@H](C(=O)Nc2ccc(F)c(F)c2F)C1=O [Compound 1266]"
metric = "pest or weed control at 125 g/ha"
recordednumber = 60

[[record]]
compound = "O=C1NC[C@H](c2nccc(C(F)(F)F)n2)[C@H]1C(=O)Nc1ccccc1F [Compound 1304]"
metric = "pest or weed control at 125 g/ha"
recordednumber = 0

[[record]]
compound = "O=C1NC[C@H](c2ccc(F)c(Oc3ccccc3)c2)[C@H]1C(=O)Nc1cccc(F)c1F [Compound 1258]"
metric = "pest or weed control at 125 g/ha"
recordednumber = 0


Below are some compounds; for each one, tell me its pest or weed control at 125 g/ha.
1. CSc1ccccc1NC(=O)[C@H]1C(=O)N(C)C[C@@H]1c1ccc(C#N)cc1 [Compound 1230]
2. Cc1ccc([C@H]2CCN(C)C(=O)[C@@H]2C(=O)Nc2cccc(Cl)c2F)cc1 [Compound 1223]
3. Cc1ccc([C@H]2CCN(C)C(=O)[C@@H]2C(=O)Nc2ccccc2C(F)(F)F)cc1 [Compound 1219]
4. CN1CC[C@H](c2ccc(C(F)(F)F)cc2)[C@@H](C(=O)Nc2cccc(Cl)c2F)C1=O [Compound 1228]
5. CN1C[C@H](c2ccc(C#N)cc2)[C@@H](C(=O)Nc2ccc(F)c(F)c2F)C1=O [Compound 1229]

// result
0
0
0
0
60

// for each compound below, give its pest or weed control at 125 g/ha
1. CN1C[C@H](c2ccc(C(F)(F)F)cc2)[C@@H](C(=O)Nc2ccccc2-n2cccn2)C1=O [Compound 1283]
2. O=C(Nc1ccc(F)c(F)c1F)[C@H]1C(=O)N(CC(F)F)C[C@@H]1c1cccc(C(F)(F)F)c1 [Compound 1297]
3. CN1C[C@H](c2csc3c2CCC3)[C@@H](C(=O)Nc2ccccc2F)C1=O [Compound 1277]
4. CN1C[C@H](c2cccc(C(F)(F)F)c2)[C@@H](C(=O)Nc2ccc(F)cc2C(F)(F)F)C1=O [Compound 1250]

// result
1. 0
2. 0
3. 0
4. 0
